Molecular target: β-catenin/BCL9 PPI (Homo sapiens, UniProt P35222)
Construct: Full-length β-catenin (residues 1-781) were cloned into a pET-28b vector; made in house; host or cells: E. coli BL21 DE3 (β-catenin); BCL9 peptide synthesized by InnoPep Inc
Sequence (P35222 1-781): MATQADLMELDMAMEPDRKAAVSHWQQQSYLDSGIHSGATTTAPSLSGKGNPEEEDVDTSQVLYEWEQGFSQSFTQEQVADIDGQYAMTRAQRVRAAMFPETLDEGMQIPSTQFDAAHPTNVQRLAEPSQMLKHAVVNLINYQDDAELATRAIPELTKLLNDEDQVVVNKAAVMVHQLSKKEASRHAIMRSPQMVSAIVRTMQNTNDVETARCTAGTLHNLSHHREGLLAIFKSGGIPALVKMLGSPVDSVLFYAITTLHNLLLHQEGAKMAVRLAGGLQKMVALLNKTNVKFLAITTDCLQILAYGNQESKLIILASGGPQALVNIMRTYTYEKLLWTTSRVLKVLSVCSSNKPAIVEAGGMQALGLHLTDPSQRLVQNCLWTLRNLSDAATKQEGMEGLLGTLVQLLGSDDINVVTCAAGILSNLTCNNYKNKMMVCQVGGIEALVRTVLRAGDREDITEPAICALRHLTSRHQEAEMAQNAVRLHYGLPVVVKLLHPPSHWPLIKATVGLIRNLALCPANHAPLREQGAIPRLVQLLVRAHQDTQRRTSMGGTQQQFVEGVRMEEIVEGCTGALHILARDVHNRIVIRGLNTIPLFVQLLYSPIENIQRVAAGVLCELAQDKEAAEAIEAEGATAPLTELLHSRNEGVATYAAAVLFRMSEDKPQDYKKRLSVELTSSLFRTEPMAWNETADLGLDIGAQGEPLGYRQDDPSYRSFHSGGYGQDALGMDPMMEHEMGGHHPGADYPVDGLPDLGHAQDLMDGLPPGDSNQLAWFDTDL
Experiment: AlphaScreen competitive inhibition assay of the β-catenin/BCL9 PPI
Type: binding
Conditions: Table 2, inhibitors 15-26; read-out: Ki
Quick list: Ki per entry.
experimental endpoint: Ki

molecule="CC(C)c1ccc(CN(C(=O)[C@@H]2CCCN(c3cccc(OC(C)(C)C(=O)N4CCNCC4)c3)C2)C2CC2)cc1 [Compound 25]" result="≤ 5 µM"
molecule="CC(C)c1ccc(CN(C)C(=O)[C@@H]2CCCN(c3cccc(OC(C)(C)C(=O)N4CCNCC4)c3)C2)cc1 [Compound 19]" result="≤ 30 µM"
molecule="CC(C)c1ccc(CNC(=O)[C@@H]2CCCN(c3cccc(OC(C)(C)C(=O)N4CCNCC4)c3)C2)cc1 [Compound 17]" result="≤ 10 µM"
molecule="CC(C)c1ccc(CNC(=O)[C@H]2CCCN(c3cccc(OC(C)(C)C(=O)N4CCNCC4)c3)C2)cc1 [Compound 18]" result="≤ 30 µM"
molecule="CC(C)c1ccc(CN(C(=O)[C@H]2CCCN(c3cccc(OC(C)(C)C(=O)N4CCNCC4)c3)C2)C2CC2)cc1 [Compound 26]" result="≤ 10 µM"

----------
Quick list: Ki per entry.
molecular target: β-catenin/BCL9 PPI (Homo sapiens, UniProt P35222); construct: Full-length β-catenin (residues 1-781) were cloned into a pET-28b vector; made in house; host or cells: E. coli BL21 DE3 (β-catenin); BCL9 peptide synthesized by InnoPep Inc; experiment: AlphaScreen competitive inhibition assay of the β-catenin/BCL9 PPI; format: binding; conditions: Table 1, inhibitors 1-14; read-out: Ki
experimental endpoint: Ki

compound="CC(C)c1ccc(CN(C)C(=O)[C@@H]2CCCN(c3cccc(OC(C)(C)C(=O)O)c3)C2)cc1 [Compound 5]" experimental_endpoint=Ki result="< 50 µM"
compound="CC(C)c1ccc(CN(C(=O)[C@H]2CCCN(c3cccc(OC(C)(C)C(=O)O)c3)C2)C(C)C)cc1 [Compound 10]" experimental_endpoint=Ki result="≤ 50 µM"
compound="CCN(Cc1ccc(C(C)C)cc1)C(=O)[C@H]1CCCN(c2cccc(OC(C)(C)C(=O)O)c2)C1 [Compound 8]" experimental_endpoint=Ki result="> 90 µM"
compound="CC(C)c1ccc(CCNC(=O)[C@H]2CCCN(c3cccc(OC(C)(C)C(=O)O)c3)C2)cc1 [Compound 14]" experimental_endpoint=Ki result="≤ 90 µM"
compound="CC(C)c1ccc(CN(C(=O)[C@@H]2CCCN(c3cccc(OC(C)(C)C(=O)O)c3)C2)C2CC2)cc1 [Compound 11]" experimental_endpoint=Ki result="≤ 50 µM"
compound="CC(C)c1ccc(CN(C(=O)[C@H]2CCCN(c3cccc(OC(C)(C)C(=O)O)c3)C2)C2CC2)cc1 [Compound 12]" experimental_endpoint=Ki result="> 90 µM"

----------
biological target: β-catenin/BCL9 PPI (Homo sapiens); construct: Full-length β-catenin (residues 1-781) were cloned into a pET-28b vector; made in house; host or cells: E. coli BL21 DE3 (β-catenin); BCL9 peptide synthesized by InnoPep Inc; experiment: AlphaScreen competitive inhibition assay of the β-catenin/BCL9 PPI; format: binding; settings: Table 10, inhibitors 99-106, racemic; read-out: Ki ± SD
pKi: −log10 of the molar value.
experimental endpoint: pKi

compound="CC(C)(Oc1cccc(N2CCCC(C(=O)N(Cc3ccc(-c4cccs4)cc3)C3CC3)C2)c1)C(=O)O (racemic)" result="≥ 4.52"
compound="CC(C)(Oc1cccc(N2CCCC(C(=O)N(Cc3ccc(-c4cn[nH]c4)cc3)C3CC3)C2)c1)C(=O)O (racemic)" result="< 4.05"
compound="CC(C)(Oc1cccc(N2CCCC(C(=O)N(Cc3ccc(-c4ccoc4)cc3)C3CC3)C2)c1)C(=O)O (racemic)" result="< 4.05"
compound="Cn1cc(-c2ccc(CN(C(=O)C3CCCN(c4cccc(OC(C)(C)C(=O)O)c4)C3)C3CC3)cc2)cn1 (racemic)" result="< 4.05"
compound="CC(C)(Oc1cccc(N2CCCC(C(=O)N(Cc3ccc(-c4ccn[nH]4)cc3)C3CC3)C2)c1)C(=O)O (racemic)" result="≥ 4.05"
compound="CC(C)(Oc1cccc(N2CCCC(C(=O)N(Cc3ccc(-c4ccsc4)cc3)C3CC3)C2)c1)C(=O)O (racemic)" result="≥ 4.52"
compound="CC(C)(Oc1cccc(N2CCCC(C(=O)N(Cc3ccc(-c4ccco4)cc3)C3CC3)C2)c1)C(=O)O (racemic)" result="≥ 4.05"
compound="Cn1nccc1-c1ccc(CN(C(=O)C2CCCN(c3cccc(OC(C)(C)C(=O)O)c3)C2)C2CC2)cc1 (racemic)" result="< 4.05"

----------
target: β-catenin/BCL9 PPI (Homo sapiens, UniProt P35222); construct: Full-length β-catenin (residues 1-781) were cloned into a pET-28b vector; made in house; host or cells: E. coli BL21 DE3 (β-catenin); BCL9 peptide synthesized by InnoPep Inc; assay: AlphaScreen competitive inhibition assay of the β-catenin/BCL9 PPI; assay type: binding; conditions: Table 5, inhibitors 54-62; read-out: Ki
pKi: −log10 of the molar value.
Quick list: pKi per entry.
experimental endpoint: pKi

molecule=CC(C)(Oc1cccc(N2CCC[C@@H](C(=O)N(Cc3ccc(-c4cn[nH]c4)cc3)C3CC3)C2)c1)C(=O)N1CCCNCC1 experimental_endpoint=pKi result="> 5.00"
molecule=CC(C)(Oc1cccc(N2CCC[C@@H](C(=O)N(Cc3ccc(-c4cn[nH]c4)cc3)C3CC3)C2)c1)C(=O)N1C[C@H]2CNC[C@H]2C1 experimental_endpoint=pKi result="> 4.52"
molecule="CC(C)(Oc1cccc(N2CCC[C@@H](C(=O)N(Cc3ccc(-c4cn[nH]c4)cc3)C3CC3)C2)c1)C(=O)N1CCC2(CCNC2)C1 (some centres unmarked)" experimental_endpoint=pKi result="> 5.30"
molecule=CC(C)(Oc1cccc(N2CCC[C@@H](C(=O)N(Cc3ccc(-c4cn[nH]c4)cc3)C3CC3)C2)c1)C(=O)N1CCOCC1 experimental_endpoint=pKi result="< 4.05"
molecule=CC(C)(Oc1cccc(N2CCC[C@@H](C(=O)N(Cc3ccc(-c4cn[nH]c4)cc3)C3CC3)C2)c1)C(=O)N1CCCCC1 experimental_endpoint=pKi result="< 4.05"
molecule="CC(C)(Oc1cccc(N2CCC[C@@H](C(=O)N(Cc3ccc(-c4cn[nH]c4)cc3)C3CC3)C2)c1)C(=O)N1CC2(CNC2)C1 [Compound 62, 2,2,2-trifluoroacetate]" experimental_endpoint=pKi result="> 4.05"
molecule="CC(C)(Oc1cccc(N2CCC[C@@H](C(=O)N(Cc3ccc(-c4cn[nH]c4)cc3)C3CC3)C2)c1)C(=O)N1CCC2(CNC2)C1 [Compound 61, 2,2,2-trifluoroacetate]" experimental_endpoint=pKi result="> 4.52"
molecule="CC(C)(Oc1cccc(N2CCC[C@@H](C(=O)N(Cc3ccc(-c4cn[nH]c4)cc3)C3CC3)C2)c1)C(=O)N1CC2(CCNCC2)C1 [Compound 60, 2,2,2-trifluoroacetate]" experimental_endpoint=pKi result="> 4.52"
